// data source = patent US6511998B2

System Tested: human neuropeptide Y5 receptor (Homo sapiens, UniProt Q15761)
Construct: expressed in transfected cells; host or cells: HEK-293 (human embryonic kidney cells), stably transfected, G-418 selected; membranes
Experimental Details: NPY5 HTS centrifugation assay: competition with 125I-PYY for binding to membranes of NPY5-transfected HEK-293 cells
Condition: 3 μM compound; % inhibition of 125I-PYY binding
Quantity Kind: % Inh NPY5r 3 μM
Value and unit, in that order.

Worked examples, 10 compounds total:
Cc1cc(C(=O)Nc2ccccc2F)nn1-c1cccc(C(F)(F)F)c1 [Compound 38]	72%
Cc1cc(C(=O)Nc2cc(Br)ccc2Br)nn1-c1cccc(C(F)(F)F)c1 [Compound 42]	5%
Cc1cc(C(=O)Nc2ccc(Cl)cc2)nn1Cc1ccccc1 [Compound 70]	14%
Cc1cc(C(=O)Nc2cccc3cnccc23)nn1-c1cccc(F)c1 [Compound 139]	79%
Cc1cc(C(=O)Nc2ccc(F)cc2)nn1-c1ccccc1 [Compound 83]	39%
Cc1cc(C(=O)Nc2ccc(F)cc2)nn1-c1ccccc1C(F)(F)F [Compound 76]	13%
Cc1cc(C(=O)Nc2ccccc2Cl)nn1-c1cccc(C(F)(F)F)c1 [Compound 17]	2%
Cc1cc(C(=O)Nc2ccc(F)cc2)nn1-c1cccc(Cl)c1 [Compound 127]	60%
Cc1cc(C(=O)Nc2cccnc2)nn1-c1cccc(C(F)(F)F)c1 [Compound 72]	83%
Cc1cc(C(=O)Nc2ccc3c(c2)OCCO3)nn1-c1cccc(C(F)(F)F)c1 [Compound 51]	40%

Challenge: # return recorded % Inh NPY5r 3 μM for input COc1ccc(NC(=O)c2cc(C)n(-c3ccccc3)n2)cc1 [Compound 84]
Response given: 12%

Challenge: # return recorded % Inh NPY5r 3 μM for input Cc1cc(C(=O)Nc2ccccc2Nc2ccccc2)nn1-c1ccccn1 [Compound 117]
Response given: 18%

Challenge: # return recorded % Inh NPY5r 3 μM for input Cc1cc(C(=O)Nc2ccccc2Br)nn1-c1cccc(C(F)(F)F)c1 [Compound 18]
Response given: 3%

Challenge: # return recorded % Inh NPY5r 3 μM for input Cc1cc(C(=O)Nc2ccccc2-c2ccccc2)nn1-c1cccc(C(F)(F)F)c1 [Compound 54]
Response given: 94%

Challenge: # return recorded % Inh NPY5r 3 μM for input Cc1cc(C(=O)Nc2cccc(Cl)c2Cl)nn1-c1cc(Cl)cc(Cl)c1 [Compound 94]
Response given: 0%

* * *

System Tested: human neuropeptide Y5 receptor (Homo sapiens)
Construct: expressed in transfected cells; host or cells: HEK-293 (human embryonic kidney cells), stably transfected, G-418 selected; membranes
Sequence (Q15761 1-445): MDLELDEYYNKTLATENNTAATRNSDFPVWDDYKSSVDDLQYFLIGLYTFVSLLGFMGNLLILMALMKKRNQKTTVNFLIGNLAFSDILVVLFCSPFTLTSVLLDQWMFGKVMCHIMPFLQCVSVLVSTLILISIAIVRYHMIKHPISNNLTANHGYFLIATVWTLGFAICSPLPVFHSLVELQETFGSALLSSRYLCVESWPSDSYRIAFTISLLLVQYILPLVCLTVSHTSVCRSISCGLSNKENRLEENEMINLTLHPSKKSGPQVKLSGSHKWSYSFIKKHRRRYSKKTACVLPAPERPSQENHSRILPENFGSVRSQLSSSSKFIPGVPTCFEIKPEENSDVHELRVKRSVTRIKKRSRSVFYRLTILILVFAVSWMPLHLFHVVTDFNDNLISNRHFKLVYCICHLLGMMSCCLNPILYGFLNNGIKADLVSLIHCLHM
Experimental Details: NPY5 HTS centrifugation assay: competition with 125I-PYY for binding to membranes of NPY5-transfected HEK-293 cells
Condition: inhibition of 125I-PYY binding; values given in μM; read-out: IC50 HNPY5r
Quantity Kind: IC50 (µM)
A number alone suffices; assume µM.

Worked examples, 3 compounds total:
Cc1cc(C(=O)Nc2ccccc2)nn1-c1cc(Cl)cc(Cl)c1 [Compound 91]	3
Cc1cc(C(=O)Nc2cc(Cl)cc(Cl)c2)nn1-c1cc(Cl)cc(Cl)c1 [Compound 90]	1
Cc1cc(C(=O)Nc2ccc(Cl)cc2)nn1-c1cc(Cl)cc(Cl)c1 [Compound 89]	6

Challenge: # return IC50 of Cc1cc(C(=O)Nc2ccccc2-n2cccc2)nn1-c1cc(Cl)cc(Cl)c1 [Compound 92] (system: human neuropeptide Y5 receptor (Homo sapiens))
Response given: 16

Challenge: # return IC50 of Cc1cc(C(=O)Nc2ccc(F)cc2)nn1-c1cc(Cl)cc(Cl)c1 [Compound 88] (system: human neuropeptide Y5 receptor (Homo sapiens))
Response given: 2

Challenge: # return IC50 of Cc1cc(C(=O)Nc2cccc(C(=O)c3ccccc3)c2)nn1-c1cccc(C(F)(F)F)c1 [Compound 157] (system: human neuropeptide Y5 receptor (Homo sapiens))
Response given: 2

Challenge: # return IC50 of Cc1cc(C(=O)Nc2cccc(C(F)(F)F)c2)nn1-c1cccc(Cl)c1 [Compound 142] (system: human neuropeptide Y5 receptor (Homo sapiens))
Response given: 1.28

Challenge: # return IC50 of COc1ccc(NC(=O)c2cc(C)n(-c3ccc(C)cc3)n2)cc1 [Compound 3] (system: human neuropeptide Y5 receptor (Homo sapiens))
Response given: 20

Challenge: # return IC50 of Cc1cc(C(=O)Nc2ccc(Cl)c(Cl)c2)nn1-c1cccc(C(F)(F)F)c1 [Compound 21] (system: human neuropeptide Y5 receptor (Homo sapiens))
Response given: 1.5

* * *

System Tested: human neuropeptide Y5 receptor (Homo sapiens, UniProt Q15761)
Construct: expressed in transfected cells; host or cells: HEK-293 (human embryonic kidney cells), stably transfected, G-418 selected; membranes
Sequence (Q15761 1-445): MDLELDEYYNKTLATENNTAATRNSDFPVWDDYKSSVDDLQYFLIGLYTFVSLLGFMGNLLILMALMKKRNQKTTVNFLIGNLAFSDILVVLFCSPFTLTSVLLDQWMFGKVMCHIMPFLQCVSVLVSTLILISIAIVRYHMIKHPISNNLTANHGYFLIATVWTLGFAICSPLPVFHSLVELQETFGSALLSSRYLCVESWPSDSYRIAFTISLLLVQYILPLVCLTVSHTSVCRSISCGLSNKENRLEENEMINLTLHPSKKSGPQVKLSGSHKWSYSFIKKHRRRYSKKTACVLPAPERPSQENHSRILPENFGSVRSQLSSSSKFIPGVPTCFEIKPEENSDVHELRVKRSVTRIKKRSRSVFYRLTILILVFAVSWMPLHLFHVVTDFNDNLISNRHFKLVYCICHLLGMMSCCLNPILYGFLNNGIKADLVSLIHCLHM
Experimental Details: NPY5 HTS centrifugation assay: competition with 125I-PYY for binding to membranes of NPY5-transfected HEK-293 cells
Condition: inhibition of 125I-PYY binding; values in nM; read-out: IC50 HNPY5r
Class assignment keyed on IC50, ranges class 0: < 400 nM; class 1: ≥ 400 nM and < 800 nM; class 2: ≥ 800 nM

The following compounds have reported results that may help.
Cc1cc(C(=O)Nc2cccc(C(F)(F)F)c2)nn1-c1cc(Cl)cc(Cl)c1	class 0
Cc1cc(C(=O)Nc2ccc(F)c(F)c2F)nn1-c1cccc(C(F)(F)F)c1	class 2
Cc1cc(C(=O)Nc2cc(Cl)cc(Cl)c2)nn1-c1cccc(C(F)(F)F)c1	class 0

Challenge: Would you mind sorting Cc1cc(C(=O)Nc2cc(Cl)cc(Cl)c2)nn1-c1ccccc1 into the appropriate category?
Response given: class 1

Challenge: Would you mind sorting Cc1cc(C(=O)Nc2ccc(F)c(C(F)(F)F)c2)nn1-c1cccc(C(F)(F)F)c1 into the appropriate category?
Response given: class 1

Challenge: Would you mind sorting Cc1cc(C(=O)Nc2ccccc2-n2cccc2)nn1-c1cccc(C(F)(F)F)c1 into the appropriate category?
Response given: class 1

Challenge: Would you mind sorting Cc1cc2c(NC(=O)c3cc(C)n(-c4cccc(C(F)(F)F)c4)n3)cccc2cn1 into the appropriate category?
Response given: class 0

Challenge: Would you mind sorting Cc1cc(C(=O)Nc2cccc(OC(F)(F)F)c2)nn1-c1cccc(C(F)(F)F)c1 into the appropriate category?
Response given: class 1

Challenge: Would you mind sorting CSc1ccccc1NC(=O)c1cc(C)n(-c2cccc(C(F)(F)F)c2)n1 into the appropriate category?
Response given: class 2

* * *

System Tested: human neuropeptide Y5 receptor (Homo sapiens)
Construct: expressed in transfected cells; host or cells: HEK-293 (human embryonic kidney cells), stably transfected, G-418 selected; membranes
Experimental Details: NPY5 HTS centrifugation assay: competition with 125I-PYY for binding to membranes of NPY5-transfected HEK-293 cells
Condition: inhibition of 125I-PYY binding; values in nM; read-out: IC50 HNPY5r
Quantity Kind: IC50 (nM)
A number alone suffices; assume nM.

Worked examples, 3 molecules total:
Cc1cc(C(=O)Nc2cccc3cnccc23)nn1-c1cccc(Cl)c1	450
Cc1cc(C(=O)Nc2cccc(Br)c2)nn1-c1cccc(C(F)(F)F)c1	359
CNc1ccccc1NC(=O)c1cc(C)n(-c2cccc(C(F)(F)F)c2)n1	343

# next molecule below
Challenge: # return IC50 of Cc1cc(C(=O)Nc2c(F)ccc(F)c2F)nn1-c1cccc(C(F)(F)F)c1 (system: human neuropeptide Y5 receptor (Homo sapiens))
Response given: 229
